Tested on: MOLT-4 leukemia
Assay: NCI tumour cell line growth inhibition, 48 h
measured.property: TGI

| compound | result |
| --- | --- |
| COC1OC(COC(=O)c2cc(O)c(O)c(O)c2)C(OC(=O)c2cc(O)c(O)c(O)c2)C(OC(=O)c2cc(O)c(O)c(O)c2)C1OC(=O)c1cc(O)c(O)c(O)c1 (centres undefined) | 70.6 µM |
| Cc1ccc(C)c(/C=C2\CN(C(=O)OC(C)(C)C)C/C(=C\c3cc(C)ccc3C)C2=O)c1 | > 100 µM |
| CC(C)NC(=O)CCN(C(=O)O)S(=O)(=O)c1ccc(NC(=O)c2ccccc2)cc1 | > 57.9 µM |
| CC(=O)Nc1ccc(COC(O)CN2CCCCC2)cc1[N+](=O)[O-] (centres undefined) | > 100 µM |

* * *

Quick reference: GI50 of the listed items.
Tested on: HL-60(TB) leukemia
Experiment: NCI tumour cell line growth inhibition, 48 h
measured.property: GI50

| compound | target.or.test.system | result |
| --- | --- | --- |
| Clc1ccc(-c2cc(-c3ccccc3)nc(NCCNc3ccnc4cc(Cl)ccc34)n2)cc1 | HL-60(TB) leukemia | 1.85 µM |
| CC(=O)N1N=C2/C(=C/c3ccc(Cl)cc3)CC(C)CC2C1c1ccc(Cl)cc1 (stereo not drawn) | HL-60(TB) leukemia | 13.5 µM |
| CC(=O)[CH-]C(=O)c1ccccc1.CC(=O)[CH-]C(=O)c1ccccc1.C[C@]12CCC(=O)C=C1CC[C@@H]1C2CC[C@@]2(C)C1CC[C@@H]2[O-].C[C@]12CCC(=O)C=C1CC[C@@H]1C2CC[C@@]2(C)C1CC[C@@H]2[O-].Cl.[Ti+4] (stereo partly drawn) | HL-60(TB) leukemia | 8.82 µM |
| O=C1OCC2=C1C(c1ccc(Cl)c(Cl)c1)c1cc3c(cc1N2CCO)CCC3 (stereo not drawn) | HL-60(TB) leukemia | 0.172 µM |
| Clc1ccc(OCc2nnc3n2N=C(c2ccc(Cl)cc2Cl)CS3)cc1 | HL-60(TB) leukemia | 31.8 µM |
| CCOc1cccc(-c2nc(N)nc(Nc3ccccc3SSc3ccccc3Nc3nc(N)nc(-c4cccc(OCC)c4)n3)n2)c1 | HL-60(TB) leukemia | 2.14 µM |
| Cc1cc(N(CCCl)CCCl)ccc1C=Nc1ccc2ccccc2c1 | HL-60(TB) leukemia | 8.6 µM |
| CN1CCN(Cc2ccc(NC(=O)c3cccc(C#Cc4cnc(N)c5ncccc45)c3F)cc2C(F)(F)F)CC1 | HL-60(TB) leukemia | 1.68 µM |

* * *

Tested on: IGROV1 ovarian
Experiment: NCI tumour cell line growth inhibition, 48 h

| molecule | bound.sign | TGI [µM] |
| --- | --- | --- |
| COc1ccc(Nc2cc(C)nc(NCCCNc3ccnc4cc(Cl)ccc34)n2)cc1 | = | 6.09 |
| CC1OC(OC2C(OC3CCC4(C)C(CCC5(C)C4CC=C4C6CC(C)(C)CCC6(C(=O)O)CCC45C)C3(C)CO)OCC(O)C2O)C(O)C(O)C1O (stereo not given) | = | 32.9 |
| CCN(CC)C1CCC(Nc2c(C(C)=O)cnc3ccc(-c4ccc(O)c(Cl)c4)cc23)CC1 (stereo not given) | = | 5.47 |
| C1CC[C@H]2SSC3CCCC[C@H]3SSC2C1 (stereo not given in full) | > | 100 |
| Cc1ccc2c(c1)S(=O)(=O)c1ccc3ccccc3c1N2 | > | 100 |
| CCOC(=O)c1[nH]cc(C)c1-c1ccc2c(-c3ccccc3)nc3ccccc3n12 | = | 16.1 |
| CCN(CC)Cc1c(/C=C\c2cc(OC)c(OC)c(OC)c2)ccc(OC)c1O | > | 78.5 |
| Cc1cccc(-c2cc(=O)c3c(C)cc(C)nc3[nH]2)c1 | > | 100 |
| CCCCCC/C=C1\CCC(CN2CCOCC2)C1=O (stereo not given) | = | 36.6 |
| Clc1ccc(OCc2nnc3n2N=C(c2ccc(Cl)cc2Cl)CS3)cc1 | = | 50.8 |
